- TEST_METHOD_NOTES: Half life of the compound in Britton-Robinson buffer at pH 4 to 10 at 0.05 mg/ml
- Assay type: physicochemical
MEASUREMENT_TYPE: half-life at 0.05 mg/ml

Q: Using the record for "Cl.N=C(N)c1ccc([C@H]2Cc3ccc(C(F)(F)F)cc3B(O)O2)cc1OCc1cccnc1" , state its measured half-life at 0.05 mg/ml.
Result: > 41.7 days

====

- TARGET_UNDER_TEST: UniProt Q9Y337
- Sequence (Q9Y337 whole entry): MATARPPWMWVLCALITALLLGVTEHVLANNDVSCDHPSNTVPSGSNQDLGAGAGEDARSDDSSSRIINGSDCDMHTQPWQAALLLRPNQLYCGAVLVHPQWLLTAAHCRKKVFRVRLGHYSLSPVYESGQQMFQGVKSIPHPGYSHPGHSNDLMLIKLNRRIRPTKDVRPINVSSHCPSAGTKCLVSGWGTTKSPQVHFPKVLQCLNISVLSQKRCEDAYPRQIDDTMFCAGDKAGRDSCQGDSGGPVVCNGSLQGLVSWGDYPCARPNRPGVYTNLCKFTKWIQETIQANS
- TEST_METHOD_NOTES: Inhibition of human recombinant 6His-Q-FLAG-tagged KLK5 expressed in baculovirus infected Sf9 insect cells using (Tos-Gly-Pro-Arg)2[R110].2TFA as substrate measured at 30 secs interval for 5 mins by FLINT assay
MEASUREMENT_TYPE: pIC50
Answers are plain numbers, as −log10 of the molar value.

Please review the following examples before continuing.
N=C(N)c1ccc(COc2ccc3c(c2)COB3O)cc1; 5.20
N=C(N)c1ccc(C2OB(O)c3ccccc32)cc1 (racemic); 3.40

Quick request: pIC50 for each listed item, please.
1. N=C(N)c1ccc(C2Cc3ccccc3B(O)O2)cc1 (racemic)
2. N=C(N)c1ccc(CC2OB(O)c3ccccc32)cc1 (racemic)
3. N=C(N)c1cccc(COc2ccc3c(c2)B(O)OC3)c1
4. N=C(N)c1ccc(CNc2cccc3c2B(O)OC3)cc1

Result:
7.10
6.80
4.90
3.70

Quick request: pIC50 for each listed item, please.
1. N=C(N)c1ccc(CC2OB(O)c3ccccc32)cc1OCc1cccnc1 (racemic)
2. N=C(N)c1cccc(C2Cc3ccccc3B(O)O2)c1 (racemic)
3. N=C(N)c1ccc(C2Cc3ccc(F)cc3B(O)O2)cc1OCc1cccnc1 (racemic)
4. N=C(N)c1ccc(NCC2Cc3ccccc3B(O)O2)cc1 (racemic)
5. N=C(N)c1ccc(Oc2ccc3c(c2)B(O)OC3)cc1

Result:
1: 7.70; 2: 5.40; 3: 8.20; 4: 5.80; 5: 4.30
